Data origin: paper PMC9508125

- system_tested: HvExoI W286F mutant (Hordeum vulgare, UniProt Q9XEI3, W311F)
- Sequence (Q9XEI3 26-630 W311F): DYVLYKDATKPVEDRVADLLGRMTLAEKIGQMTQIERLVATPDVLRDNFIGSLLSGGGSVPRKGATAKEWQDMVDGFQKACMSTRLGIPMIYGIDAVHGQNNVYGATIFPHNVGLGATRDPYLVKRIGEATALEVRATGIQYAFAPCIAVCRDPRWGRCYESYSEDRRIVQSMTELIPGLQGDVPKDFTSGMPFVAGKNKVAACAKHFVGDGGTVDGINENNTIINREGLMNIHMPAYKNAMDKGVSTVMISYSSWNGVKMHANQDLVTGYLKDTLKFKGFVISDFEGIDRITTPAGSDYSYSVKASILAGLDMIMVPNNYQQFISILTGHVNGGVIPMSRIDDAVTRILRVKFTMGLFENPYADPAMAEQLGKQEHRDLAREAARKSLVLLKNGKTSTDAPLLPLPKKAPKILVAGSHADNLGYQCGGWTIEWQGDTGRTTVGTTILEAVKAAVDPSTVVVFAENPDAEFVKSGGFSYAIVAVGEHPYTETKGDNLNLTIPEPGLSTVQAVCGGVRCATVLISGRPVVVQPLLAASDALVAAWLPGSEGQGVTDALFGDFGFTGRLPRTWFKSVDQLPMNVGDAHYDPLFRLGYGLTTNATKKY
- assay_comment: Relative rates of hydrolysis of poly-, oligosaccharides and aryl-glycosides
- Format: biochemical
- protocol_conditions: substance is the substrate, nd = activity not detected

{"compound": "OC[C@H]1O[C@@H](O[C@H]2[C@H](O)[C@@H](O)[C@H](O[C@H]3[C@H](O)[C@@H](O)C(O)O[C@@H]3CO)O[C@@H]2CO)[C@H](O)[C@@H](O)[C@@H]1O (stereo partly shown)", "Activity (relative rate of hydrolysis)": "0.1 ± 0.01 μmole/min per mg protein"}
{"compound": "OC[C@H]1O[C@@H](O[C@@H]2[C@@H](O)[C@H](O[C@@H]3[C@@H](O)[C@H](O[C@@H]4[C@@H](O)[C@H](O[C@@H]5[C@@H](O)[C@H](O[C@H]6[C@H](O)[C@@H](CO)OC(O)[C@@H]6O)O[C@H](CO)[C@H]5O)O[C@H](CO)[C@H]4O)O[C@H](CO)[C@H]3O)O[C@H](CO)[C@H]2O)[C@H](O)[C@@H](O)[C@@H]1O (stereo partly shown)", "Activity (relative rate of hydrolysis)": "1.1 ± 0.03 μmole/min per mg protein"}
{"compound": "OC[C@H]1O[C@@H](O[C@H]2[C@H](O)[C@@H](CO)OC(O)[C@@H]2O)[C@H](O)[C@@H](O)[C@@H]1O (stereo partly shown)", "Activity (relative rate of hydrolysis)": "0.6 ± 0.04 μmole/min per mg protein"}
{"compound": "OC[C@H]1O[C@@H](O[C@H]2[C@H](O)[C@@H](O)[C@H](O[C@H]3[C@H](O)[C@@H](O)[C@H](O[C@H]4[C@H](O)[C@@H](O)[C@H](O[C@H]5[C@H](O)[C@@H](O)C(O)O[C@@H]5CO)O[C@@H]4CO)O[C@@H]3CO)O[C@@H]2CO)[C@H](O)[C@@H](O)[C@@H]1O (stereo partly shown)", "Activity (relative rate of hydrolysis)": "0.1 ± 0.01 μmole/min per mg protein"}

----------
- system_tested: HvExoI W434Y mutant (Hordeum vulgare, UniProt Q9XEI3, W459Y)
- assay_comment: Relative rates of hydrolysis of poly-, oligosaccharides and aryl-glycosides
- Assay type: biochemical
- protocol_conditions: substance is the substrate, nd = activity not detected

{"molecule": "OC[C@H]1O[C@@H](O[C@@H]2[C@@H](O)[C@H](O[C@@H]3[C@@H](O)[C@H](O[C@@H]4[C@@H](O)[C@H](O[C@@H]5[C@@H](O)[C@H](O[C@H]6[C@H](O)[C@@H](CO)OC(O)[C@@H]6O)O[C@H](CO)[C@H]5O)O[C@H](CO)[C@H]4O)O[C@H](CO)[C@H]3O)O[C@H](CO)[C@H]2O)[C@H](O)[C@@H](O)[C@@H]1O (some centres unmarked)", "Activity (relative rate of hydrolysis) [μmole/min per mg protein]": 1.4}
{"molecule": "OC[C@H]1O[C@@H](O[C@@H]2[C@@H](O)[C@H](O[C@@H]3[C@@H](O)[C@H](O[C@@H]4[C@@H](O)[C@H](O[C@@H]5[C@@H](O)[C@H](O)O[C@H](CO)[C@H]5O)O[C@H](CO)[C@H]4O)O[C@H](CO)[C@H]3O)O[C@H](CO)[C@H]2O)[C@H](O)[C@@H](O)[C@@H]1O", "Activity (relative rate of hydrolysis) [μmole/min per mg protein]": 1.5}
{"molecule": "OC[C@H]1O[C@@H](O[C@H]2[C@H](O)[C@@H](CO)OC(O)[C@@H]2O)[C@H](O)[C@@H](O)[C@@H]1O (some centres unmarked)", "Activity (relative rate of hydrolysis) [μmole/min per mg protein]": 1.1}
{"molecule": "O=[N+]([O-])c1ccc(O[C@@H]2O[C@H](CO)[C@@H](O)[C@H](O)[C@H]2O)cc1 [4NP-Glc, 4-nitrophenyl β-D-glucopyranoside]", "Activity (relative rate of hydrolysis) [μmole/min per mg protein]": 1.2}
{"molecule": "OC[C@H]1O[C@@H](O[C@H]2C(O)O[C@H](CO)[C@@H](O)[C@@H]2O)[C@H](O)[C@@H](O)[C@@H]1O (some centres unmarked)", "Activity (relative rate of hydrolysis) [μmole/min per mg protein]": 0.8}

----------
- system_tested: HvExoI W434F mutant (Hordeum vulgare, UniProt Q9XEI3, W459F)
- assay_comment: Relative rates of hydrolysis of poly-, oligosaccharides and aryl-glycosides
- Type: biochemical
- protocol_conditions: substance is the substrate, nd = activity not detected
Entries and their measured Activity (relative rate of hydrolysis) follow.

{"compound": "OC[C@H]1O[C@@H](O[C@H]2[C@H](O)[C@@H](O)[C@H](O[C@H]3[C@H](O)[C@@H](O)[C@H](O[C@H]4[C@H](O)[C@@H](O)[C@H](O[C@H]5[C@H](O)[C@@H](O)[C@H](O[C@H]6[C@H](O)[C@@H](O)C(O)O[C@@H]6CO)O[C@@H]5CO)O[C@@H]4CO)O[C@@H]3CO)O[C@@H]2CO)[C@H](O)[C@@H](O)[C@@H]1O (some centres unmarked) [Cellohexaose]", "Activity (relative rate of hydrolysis) / μmole/min per mg protein": 1.9}
{"compound": "OC[C@H]1O[C@@H](O[C@@H]2[C@@H](O)[C@H](O[C@@H]3[C@@H](O)[C@H](O[C@@H]4[C@@H](O)[C@H](O[C@@H]5[C@@H](O)[C@H](O[C@H]6[C@H](O)[C@@H](CO)OC(O)[C@@H]6O)O[C@H](CO)[C@H]5O)O[C@H](CO)[C@H]4O)O[C@H](CO)[C@H]3O)O[C@H](CO)[C@H]2O)[C@H](O)[C@@H](O)[C@@H]1O (some centres unmarked) [Laminarihexaose]", "Activity (relative rate of hydrolysis) / μmole/min per mg protein": 15.8}

----------
- system_tested: WT HvExoI (Hordeum vulgare, UniProt Q9XEI3)
- assay_comment: Relative rates of hydrolysis of poly-, oligosaccharides and aryl-glycosides
- Type: biochemical
- protocol_conditions: substance is the substrate, HvExoI at 50 pmoles, nd = activity not detected
Lab note - cut at 8 μmole/min per mg protein for Activity (relative rate of hydrolysis): condition met if strictly below, condition not met if not.

{"compound": "OC[C@H]1O[C@@H](O[C@@H]2[C@@H](O)[C@H](O[C@@H]3[C@@H](O)[C@H](O[C@@H]4[C@@H](O)[C@H](O[C@@H]5[C@@H](O)[C@H](O[C@H]6[C@H](O)[C@@H](CO)OC(O)[C@@H]6O)O[C@H](CO)[C@H]5O)O[C@H](CO)[C@H]4O)O[C@H](CO)[C@H]3O)O[C@H](CO)[C@H]2O)[C@H](O)[C@@H](O)[C@@H]1O (some centres unmarked)", "system_tested": "WT HvExoI (Hordeum vulgare, UniProt Q9XEI3)", "cat": "condition not met"}
{"compound": "OC[C@H]1O[C@@H](O[C@H]2[C@H](O)[C@@H](O)[C@H](O[C@H]3[C@H](O)[C@@H](O)C(O)O[C@@H]3CO)O[C@@H]2CO)[C@H](O)[C@@H](O)[C@@H]1O (some centres unmarked)", "system_tested": "WT HvExoI (Hordeum vulgare, UniProt Q9XEI3)", "cat": "condition not met"}
{"compound": "OC[C@H]1O[C@@H](O[C@@H]2[C@@H](O)[C@H](O[C@@H]3[C@@H](O)[C@H](O[C@@H]4[C@@H](O)[C@H](O[C@@H]5[C@@H](O)[C@H](O[C@@H]6[C@@H](O)[C@H](O[C@@H]7[C@@H](O)[C@H](O)O[C@H](CO)[C@H]7O)O[C@H](CO)[C@H]6O)O[C@H](CO)[C@H]5O)O[C@H](CO)[C@H]4O)O[C@H](CO)[C@H]3O)O[C@H](CO)[C@H]2O)[C@H](O)[C@@H](O)[C@@H]1O", "system_tested": "WT HvExoI (Hordeum vulgare, UniProt Q9XEI3)", "cat": "condition not met"}
{"compound": "O=[N+]([O-])c1ccc(O[C@@H]2O[C@H](CO)[C@@H](O[C@@H]3O[C@H](CO)[C@@H](O)[C@H](O)[C@H]3O)[C@H](O)[C@H]2O)cc1 [4NP-cellobioside]", "system_tested": "WT HvExoI (Hordeum vulgare, UniProt Q9XEI3)", "cat": "condition met"}
{"compound": "OC[C@H]1O[C@@H](O[C@@H]2[C@@H](O)[C@H](O[C@H]3[C@H](O)[C@@H](CO)OC(O)[C@@H]3O)O[C@H](CO)[C@H]2O)[C@H](O)[C@@H](O)[C@@H]1O (some centres unmarked)", "system_tested": "WT HvExoI (Hordeum vulgare, UniProt Q9XEI3)", "cat": "condition not met"}
{"compound": "OC[C@H]1O[C@@H](O[C@H]2[C@H](O)[C@@H](O)[C@H](O[C@H]3[C@H](O)[C@@H](O)[C@H](O[C@H]4[C@H](O)[C@@H](O)[C@H](O[C@H]5[C@H](O)[C@@H](O)C(O)O[C@@H]5CO)O[C@@H]4CO)O[C@@H]3CO)O[C@@H]2CO)[C@H](O)[C@@H](O)[C@@H]1O (some centres unmarked)", "system_tested": "WT HvExoI (Hordeum vulgare, UniProt Q9XEI3)", "cat": "condition not met"}
{"compound": "O=[N+]([O-])c1ccc(O[C@@H]2O[C@H](CO)[C@@H](O)[C@H](O)[C@H]2O)cc1 [4NP-Glc, 4-nitrophenyl β-D-glucopyranoside]", "system_tested": "WT HvExoI (Hordeum vulgare, UniProt Q9XEI3)", "cat": "condition not met"}
{"compound": "OC[C@H]1O[C@@H](O[C@H]2C(O)O[C@H](CO)[C@@H](O)[C@@H]2O)[C@H](O)[C@@H](O)[C@@H]1O (some centres unmarked)", "system_tested": "WT HvExoI (Hordeum vulgare, UniProt Q9XEI3)", "cat": "condition met"}
